# Run description: sensitizers of A549 cells to miR-34 induction, primary screen, imaging, A549 dox-inducible miR-34, nuclei and caspase counts (AID 1347080)
# Test settings: A549 miR-34 inducible, Hoechst nuclei count, 48 h; stronger effect = lower value; cell number ratio, induced over uninduced
Quantity: fold change
Just the number, please, no unit attached.

// below: answered compounds
CN1CCC(c2ccc(F)cc2)C(COc2ccc3c(c2)OCO3)C1 (configuration not stated); 0.906
C[C@H]1CCC2(NC1)O[C@H]1C[C@H]3[C@@H]4CC[C@H]5C[C@@H](O[C@@H]6O[C@H](CO)[C@H](O[C@@H]7O[C@H](CO)[C@@H](O)[C@H](O[C@@H]8OC[C@@H](O)[C@H](O)[C@H]8O)[C@H]7O[C@@H]7O[C@H](CO)[C@@H](O)[C@H](O)[C@H]7O)[C@H](O)[C@H]6O)CC[C@]5(C)[C@H]4CC[C@]3(C)[C@H]1[C@@H]2C (some centres not stated); 0.761
CCCCC/C=C\C/C=C\C/C=C\C/C=C\CCCC(=O)NCCc1c[nH]c2ccc(O)cc12; 1
CN(C(=O)Cc1ccccc1)C(CN1CCCC1)c1ccccc1 (configuration not stated); 0.952
CCN1CCN(C(=O)Cc2ccc(Nc3ncc(F)c(Nc4ccc(C(=O)Nc5ccccc5Cl)cc4)n3)cc2)CC1; 0.811

The reported fold change of the compound "O=C(N[C@H]1CN2CCC1CC2)c1ccc(Cl)cc1" was 0.932

The reported fold change of the compound "O=C1NC(=O)c2c1c1c3ccccc3n3c1c1c2c2ccccc2n1C1CCC3O1" was 1.12

The reported fold change of the compound CC(C)(C)[C@@]1(O)C[C@@H]2OC(=O)C[C@@]23C(=O)O[C@H]2OC(=O)C(O)C213 (some centres not stated) was 0.894

====

Quick reference for remaining activity among some compounds
# Test system: Aerobactin synthetase IucA (Klebsiella pneumoniae)
# Run description: IucA aerobactin synthetase inhibitors, biochemical, Tocris library, absorbance (AID 1345561);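 also: 100% = enzyme without compound and 0% = no enzyme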
# Test settings: purified IucA enzyme assay, absorbance (OD) read-out; stronger effect = lower value; concentration not given here
Respond numerically; units are % and should not be typed.

C[C@H]1CCC/C=C/C2C[C@H](O)C[C@H]2[C@H](O)/C=C/C(=O)O1 (stereo partly specified); 129
COc1ccc(C[C@H]2NC[C@H](O)[C@H]2OC(C)=O)cc1; 125
C[C@H](N)Cn1ccc2cc(F)c(Cl)cc21; 103
NCCc1c[nH]c2ccc(C(N)=O)cc12; 111
Clc1cccc(SC2CCNCC2)n1; 108

Observed remaining activity, Aerobactin synthetase IucA (Klebsiella pneumoniae), "c1ccc2sc(C3(N4CCCCC4)CCCCC3)cc2c1" : 107

Observed remaining activity, Aerobactin synthetase IucA (Klebsiella pneumoniae), "C=CCN1CC[C@]23c4c5ccc(O)c4O[C@H]2C(=O)CC[C@@]3(O)[C@H]1C5" : 101

Observed remaining activity, Aerobactin synthetase IucA (Klebsiella pneumoniae), "C[C@@H]1CC[C@H]2[C@@H](C)C(=O)O[C@@H]3O[C@@]4(C)CC[C@@H]1[C@]32OO4" : 94.3

Observed remaining activity, Aerobactin synthetase IucA (Klebsiella pneumoniae), "CCCCC/C=C\C/C=C\C/C=C\C/C=C\CCCC(=O)Nc1ccc(O)cc1" : 113

Observed remaining activity, Aerobactin synthetase IucA (Klebsiella pneumoniae), "CCCN[C@@H]1CCc2c(OC)cccc2[C@@H]1C" : 99.1

Observed remaining activity, Aerobactin synthetase IucA (Klebsiella pneumoniae), "C[C@@]12N[C@@H](Cc3ccccc31)c1ccccc12" : 98.4

Cited source: PubChem BioAssay
